Molecular target: T1, human CEA protein on the cell surface (human, UniProt P06731 35-685)
T1 construct: whole, on cells; also called CEACAM-5; CD66e
T1 sequence (looked up): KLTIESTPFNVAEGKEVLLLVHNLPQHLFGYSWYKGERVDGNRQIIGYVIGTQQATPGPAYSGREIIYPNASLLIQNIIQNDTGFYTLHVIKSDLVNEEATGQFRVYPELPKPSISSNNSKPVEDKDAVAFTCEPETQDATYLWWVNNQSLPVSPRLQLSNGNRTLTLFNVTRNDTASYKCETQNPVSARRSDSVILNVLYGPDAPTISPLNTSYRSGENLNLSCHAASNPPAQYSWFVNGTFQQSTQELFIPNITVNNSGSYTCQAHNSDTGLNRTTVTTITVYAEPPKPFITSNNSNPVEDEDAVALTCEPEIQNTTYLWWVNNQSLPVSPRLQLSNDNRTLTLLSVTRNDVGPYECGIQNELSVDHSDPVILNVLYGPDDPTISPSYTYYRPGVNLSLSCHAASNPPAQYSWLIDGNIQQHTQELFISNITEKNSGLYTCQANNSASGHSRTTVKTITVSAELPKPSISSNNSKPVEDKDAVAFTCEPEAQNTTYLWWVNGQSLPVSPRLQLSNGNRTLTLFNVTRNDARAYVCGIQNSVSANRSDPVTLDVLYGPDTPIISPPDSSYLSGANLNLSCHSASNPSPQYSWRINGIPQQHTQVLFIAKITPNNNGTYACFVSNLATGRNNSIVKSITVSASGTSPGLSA
Test: FACS, MKN45 cells
Reported EC50 is given for each of the following binders.
Report the figure in nM without appending any unit label.

1. Hu67-12 (antibody, V domains shown) VH: EVQLVQSGAEVKKPGESLKISCKGSGYSFTDYHMNWVKQMPGKGLEWMGDINPDIGGTSYNQNFKGKVTISVDKSISTAYLQWSSLKASDTAMYYCARWDFDSFANWGQGTLVTVSS VL: EIVMTQSPATLSVSPGERATLSCRASESVSIIGTNLIHWYQQKPGQAPRLLIYHASNLETGIPARFSGSGSGTEFTLTISSLQSEDFAVYYCLQSRKIPYTFGGGTKVEIKR = 3.2
2. Hu63-11 (antibody, human IgG1, kappa, V domains shown) VH: EVQLVQSGAEVKKPGASVKVSCKASGYTFTDFYMNWVRQAPGQGLEWIGDIFPKNGNTDYNRKFKDKATLTVDKSTSTVYMEFRSLRSEDTAVYYCARSGYGNYVFDYWGQGTLVTVSS VL: DVQMTQSPSSLSASVGDRVTITCRTSQDINIYLNWYQQKPGKAPKLLIYYRSGLLSGVPSRFSGSGSGTDYTLTISSLQPEDFATYYCQQGNTLPPTFGGGTKVEIKR = 4.35
3. Hu63-12 (antibody, human IgG1, kappa, V domains shown) VH: EVQLVQSGAEVKKPGASVKVSCKASGYTFTDFYMNWVRQAPGQGLEWIGDIFPKNGNTDYNRKFKDKATLTVDKSTSTVYMEFRSLRSEDTAVYYCARSGYGNYVFDYWGQGTLVTVSS VL: DVQMTQSPSSLSASVGDRVTITCRTSQDINIYLNWYQQKPGGAVKLLIYYRSGLLSGVPSRFSGSGSGTDYTLTISSLQPEDFATYYCQQGNTLPPTFGGGTKVEIKR = 4.04
4. Hu63-6 (antibody, human IgG1, kappa, V domains shown) VH: EVQLVQSGAEVKKPGASVKVSCKASGYTFTDFYMNWVRQAPGQGLEWMGDIFPKNGNTDYNRKFKDRVTLTVDKSTSTVYMELSSLRSEDTAVYYCARSGYGNYVFDYWGQGTLVTVSS VL: DVQMTQSPSSLSASVGDRVTITCRTSQDINIYLNWYQQKPGGAVKLLIYYRSGLLSGVPSRFSGSGSGTDYTLTISSLQPEDFATYYCQQGNTLPPTFGGGTKVEIKR = 3.71
5. Hu63-1 (antibody, human IgG1, kappa, V domains shown) VH: EVQLVQSGAEVKKPGASVKVSCKASGYTFTDFYMNWVRQAPGQGLEWMGDIFPKNGNTDYNRKFKDRVTMTRDTSTSTVYMELSSLRSEDTAVYYCARSGYGNYVFDYWGQGTLVTVSS VL: DIQMTQSPSSLSASVGDRVTITCRTSQDINIYLNWYQQKPGKAPKLLIYYRSGLLSGVPSRFSGSGSGTDFTLTISSLQPEDFATYYCQQGNTLPPTFGGGTKVEIKR = 4.23

Q: Item under review: Hu103-32 (antibody, human IgG1, lambda, V domains shown, Humanized IgG1/lambda; h103VH4 + h103VL8) VH: EVQLVQSGSELKKPGASVKVSCKASGYTFTTYGVIWVRQAPGQGLEWMGWINTYSGVPTYASDFKGRFVFSLDTSVSTAYLQISSLKAEDTAVYYCARKKTLTTVTPWFAYWGQGTLVTVSS VL: ELVLTQSPSASASLGASVKLTCTLSSQHSTYTIEWYQQQPEKGPRYVMELKKDGSHSTGEGIPDRFSGSSSGAERYLTISSLQSEDEADYYCGVGNTIKEQFVYVFGGGTKLTVLG . Reported EC50?
Result: 1.79
